methodSummary: Solubility of solid organic sunscreens in solubilizers (25° C.)
Assay type: physicochemical
conditionSummary: solute Oxybenzone (E-567)
Experimental: Upon cooling to 25° C., a few seed crystals (<10 mg) of the sunscreen were added to hasten equilibration. The solutions were stored in the dark in a constant temperature chamber at 25° C. Each was sampled weekly, and the ca. 0.1 g sample was filtered through a 0.45μ syringe filter and analyzed by GLC or HPLC, calibrated using standard solutions, until the value for wt. % of solute was constant.
Listing: Solubility of E-567 (Oxybenzone) in the solvent of selected compounds
propertyLabel: Solubility of E-567 (Oxybenzone) in the solvent (wt. %)

INSERT INTO measurements (compound, resultnumber) VALUES
  ('CCC(=O)OCCc1ccccc1 [2-phenylethyl propionate]', 40),
  ('CCCCCCCCOC(=O)OCCCCCCCC [dioctyl carbonate, reference compound]', 16),
  ('CCCCC(CC)C(=O)OCCc1ccccc1 (stereo not shown) [2-phenylethyl 2-ethylhexanoate]', 25),
  ('O=C(OCCc1ccccc1)C1CC1 [2-phenylethyl cyclopropanoate, 2-Phenylethyl Cyclopropanecarboxylate]', 39);

---

methodSummary: Solubility of solid organic sunscreens in solubilizers (25° C.)
Type: physicochemical
conditionSummary: solute Avobenzone (E-517)
propertyLabel: Solubility of E-517 (Avobenzone) in the solvent (wt. %)

INSERT INTO assay_data (compound, unittag, resultnumber) VALUES
  ('CC(C)(C)C(=O)OCCc1ccccc1 [2-phenylethyl neopentanoate]', 'wt. %', 19),
  ('CCC(=O)OCCc1ccccc1 [2-phenylethyl propionate]', 'wt. %', 25),
  ('CC(=O)OCCc1ccccc1 [2-phenylethyl acetate]', 'wt. %', 26),
  ('CC(C)CCCCCCCOC(=O)C(C)(C)C [isodecyl neopentanoate, reference compound]', 'wt. %', 8),
  ('CCCCC(CC)C(=O)OCCc1ccccc1 (stereo not drawn) [2-phenylethyl 2-ethylhexanoate]', 'wt. %', 17),
  ('CCC(=O)OCCOc1ccccc1 [2-phenoxyethyl propionate]', 'wt. %', 21),
  ('CCC(=O)OC(C)c1ccccc1 (stereo not drawn) [1-phenylethyl propionate]', 'wt. %', 23),
  ('CCCCCCCC(=O)OCCc1ccccc1 [2-phenylethyl octanoate]', 'wt. %', 19),
  ('CCCCC(=O)OCCc1ccccc1 [2-phenylethyl pentanoate, 2-Phenylethyl Pentanoate]', 'wt. %', 22),
  ('CCCC(=O)OCc1ccccc1 [benzyl butyrate]', 'wt. %', 24),
  ('O=C(OCCc1ccccc1)C1CC1 [2-phenylethyl cyclopropanoate, 2-Phenylethyl Cyclopropanecarboxylate]', 'wt. %', 24),
  ('CCCCCCCCOC(=O)OCc1ccccc1 [benzyl octyl carbonate]', 'wt. %', 17),
  ('CC(O)C(=O)OCc1ccccc1 (stereo not drawn) [benzyl lactate]', 'wt. %', 11),
  ('CCCCCCCCOC(=O)OCCCCCCCC [dioctyl carbonate, reference compound]', 'wt. %', 13),
  ('O=C(OCCc1ccccc1)C1CCCCC1 [2-phenylethyl cyclohexanoate, 2-Phenylethyl Cyclohexanecarboxylate]', 'wt. %', 20);

---

# Solubility of EHT in the solvent values compiled below
methodSummary: Solubility of solid organic sunscreens in solubilizers (25° C.)
Assay type: physicochemical
conditionSummary: solute Ethylhexyl triazone (EHT)
Experimental: Upon cooling to 25° C., a few seed crystals (<10 mg) of the sunscreen were added to hasten equilibration. The solutions were stored in the dark in a constant temperature chamber at 25° C. Each was sampled weekly, and the ca. 0.1 g sample was filtered through a 0.45μ syringe filter and analyzed by GLC or HPLC, calibrated using standard solutions, until the value for wt. % of solute was constant.
propertyLabel: Solubility of EHT in the solvent (wt. %)

INSERT INTO assay_data (compound, propertylabel, unittag, resultnumber) VALUES
  ('CCC(=O)OCCc1ccccc1 [2-phenylethyl propionate]', 'Solubility of EHT in the solvent', 'wt. %', 12),
  ('O=C(OCCc1ccccc1)C1CC1 [2-phenylethyl cyclopropanoate, 2-Phenylethyl Cyclopropanecarboxylate]', 'Solubility of EHT in the solvent', 'wt. %', 16),
  ('CCCCC(CC)C(=O)OCCc1ccccc1 (stereo not drawn) [2-phenylethyl 2-ethylhexanoate]', 'Solubility of EHT in the solvent', 'wt. %', 4),
  ('CCCCCCCCOC(=O)OCc1ccccc1 [benzyl octyl carbonate]', 'Solubility of EHT in the solvent', 'wt. %', 6),
  ('O=C(OCCc1ccccc1)C1CCCCC1 [2-phenylethyl cyclohexanoate, 2-Phenylethyl Cyclohexanecarboxylate]', 'Solubility of EHT in the solvent', 'wt. %', 10),
  ('CCC(=O)OC(C)c1ccccc1 (stereo not drawn) [1-phenylethyl propionate]', 'Solubility of EHT in the solvent', 'wt. %', 10),
  ('CCCCC(=O)OCCc1ccccc1 [2-phenylethyl pentanoate, 2-Phenylethyl Pentanoate]', 'Solubility of EHT in the solvent', 'wt. %', 10),
  ('CC(O)C(=O)OCc1ccccc1 (stereo not drawn) [benzyl lactate]', 'Solubility of EHT in the solvent', 'wt. %', 8),
  ('CC(=O)OCCc1ccccc1 [2-phenylethyl acetate]', 'Solubility of EHT in the solvent', 'wt. %', 14),
  ('CCC(=O)OCCOc1ccccc1 [2-phenoxyethyl propionate]', 'Solubility of EHT in the solvent', 'wt. %', 6),
  ('CCCC(=O)OCc1ccccc1 [benzyl butyrate]', 'Solubility of EHT in the solvent', 'wt. %', 10),
  ('CC(C)(C)C(=O)OCCc1ccccc1 [2-phenylethyl neopentanoate]', 'Solubility of EHT in the solvent', 'wt. %', 5),
  ('CC(C)CCCCCCCOC(=O)C(C)(C)C [isodecyl neopentanoate, reference compound]', 'Solubility of EHT in the solvent', 'wt. %', 3),
  ('CCCCCCCCOC(=O)OCCCCCCCC [dioctyl carbonate, reference compound]', 'Solubility of EHT in the solvent', 'wt. %', 7),
  ('CCCCCCCC(=O)OCCc1ccccc1 [2-phenylethyl octanoate]', 'Solubility of EHT in the solvent', 'wt. %', 8);

---

List of Solubility of E-567 (Oxybenzone) in the solvent values.
methodSummary: Solubility of solid organic sunscreens in solubilizers (25° C.)
Assay type: physicochemical
conditionSummary: solute Oxybenzone (E-567)
propertyLabel: Solubility of E-567 (Oxybenzone) in the solvent (wt. %)

INSERT INTO measurements (molecule, unittag, resultnumber) VALUES
  ('CCCCCCCC(=O)OCCc1ccccc1 [2-phenylethyl octanoate]', 'wt. %', 27),
  ('CCCCCCCCOC(=O)OCc1ccccc1 [benzyl octyl carbonate]', 'wt. %', 27),
  ('CCCC(=O)OCc1ccccc1 [benzyl butyrate]', 'wt. %', 39),
  ('CC(C)CCCCCCCOC(=O)C(C)(C)C [isodecyl neopentanoate, reference compound]', 'wt. %', 11),
  ('CCC(=O)OCCOc1ccccc1 [2-phenoxyethyl propionate]', 'wt. %', 38),
  ('CCC(=O)OC(C)c1ccccc1 (centres unmarked) [1-phenylethyl propionate]', 'wt. %', 38),
  ('CC(O)C(=O)OCc1ccccc1 (centres unmarked) [benzyl lactate]', 'wt. %', 30),
  ('CC(C)(C)C(=O)OCCc1ccccc1 [2-phenylethyl neopentanoate]', 'wt. %', 29),
  ('CCCCC(=O)OCCc1ccccc1 [2-phenylethyl pentanoate, 2-Phenylethyl Pentanoate]', 'wt. %', 35),
  ('CC(=O)OCCc1ccccc1 [2-phenylethyl acetate]', 'wt. %', 44),
  ('O=C(OCCc1ccccc1)C1CCCCC1 [2-phenylethyl cyclohexanoate, 2-Phenylethyl Cyclohexanecarboxylate]', 'wt. %', 32);

---

methodSummary: UV absorption spectra of sunscreens in selected solvents
Type: physicochemical
conditionSummary: 10 mg/L MBC in the solvent, second (shorter wavelength) band
λmax of MBC overview
propertyLabel: λmax of MBC (nm)

INSERT INTO results (molecule, propertylabel, unittag, resultnumber) VALUES
  ('O=C(OCCc1ccccc1)C1CCCCC1 [2-phenylethyl cyclohexanoate, 2-Phenylethyl Cyclohexanecarboxylate]', 'λmax of MBC', 'nm', 317),
  ('CCCCC(=O)OCCc1ccccc1 [2-phenylethyl pentanoate, 2-Phenylethyl Pentanoate]', 'λmax of MBC', 'nm', 298);

---

methodSummary: Solubility of solid organic sunscreens in solubilizers (25° C.)
Assay type: physicochemical
conditionSummary: solute Bis-ethylhexyloxyphenol methoxyphenyl triazine (BEMT)
Criterion: Solubility of BEMT in the solvent meeting or surpassing 30 wt. %. Met: y. Not met: n.

INSERT INTO assay_data (compound, assignedcategory) VALUES
  ('CCCCC(CC)C(=O)OCCc1ccccc1 (centres unmarked) [2-phenylethyl 2-ethylhexanoate]', 'n'),
  ('CC(=O)OCCc1ccccc1 [2-phenylethyl acetate]', 'n'),
  ('O=C(OCCc1ccccc1)C1CC1 [2-phenylethyl cyclopropanoate, 2-Phenylethyl Cyclopropanecarboxylate]', 'n'),
  ('CCC(=O)OCCc1ccccc1 [2-phenylethyl propionate]', 'y'),
  ('O=C(OCCc1ccccc1)C1CCCCC1 [2-phenylethyl cyclohexanoate, 2-Phenylethyl Cyclohexanecarboxylate]', 'y');
